experimental-system: CCK2R TM3 (V3.28T, S3.29T) (Homo sapiens, UniProt P32239, S131T/V130T)
measurement-protocol: 125I-CCK competition binding, chimeric construct
quantity-name: pIC50
In plain terms, pIC50 is the concentration in mol/L turned into minus its base-10 logarithm.

// pIC50 value for COc1ccc(N(C)C(=O)CN2C(=O)C(NC(=O)Nc3ccccc3)C(=O)N(c3ccccc3)c3ccccc32)cc1 (stereo not shown) [GR135470X] : 8.00

###

experimental-system: CCK2R TM6 (V6.51I, Y6.52F) (Homo sapiens, UniProt P32239, V349I/Y350F)
Sequence (P32239 1-447 V349I/Y350F): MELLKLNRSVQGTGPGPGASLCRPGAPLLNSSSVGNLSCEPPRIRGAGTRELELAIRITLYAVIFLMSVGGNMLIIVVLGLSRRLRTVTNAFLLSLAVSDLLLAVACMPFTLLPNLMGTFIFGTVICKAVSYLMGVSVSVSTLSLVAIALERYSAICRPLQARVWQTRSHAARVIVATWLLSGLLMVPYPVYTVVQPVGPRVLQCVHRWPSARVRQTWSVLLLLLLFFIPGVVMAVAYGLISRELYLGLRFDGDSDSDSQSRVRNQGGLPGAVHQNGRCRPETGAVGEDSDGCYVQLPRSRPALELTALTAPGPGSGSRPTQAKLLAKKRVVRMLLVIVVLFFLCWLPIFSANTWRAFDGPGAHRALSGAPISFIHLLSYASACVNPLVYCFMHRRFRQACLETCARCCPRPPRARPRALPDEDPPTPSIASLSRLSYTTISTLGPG
measurement-protocol: 125I-BDZ-2 competition binding, chimeric construct
quantity-name: pIC50
In plain terms, pIC50 is the concentration in mol/L turned into minus its base-10 logarithm.

// pIC50 value for COc1ccc(N(C)C(=O)CN2C(=O)C(NC(=O)Nc3ccccc3)C(=O)N(c3ccccc3)c3ccccc32)cc1 (stereo not shown) [GR135470X] : 7.44
